- Measured target: wild-type LRRK2 (Homo sapiens)
- Construct: DNA tag for qPCR detection (not a peptide; the protein part that carries it is not described); made in house; host or cells: HEK 293 cells (the same paragraph also describes T7 phage grown in E. coli BL21)
- Sequence (Q5S007 970-2527): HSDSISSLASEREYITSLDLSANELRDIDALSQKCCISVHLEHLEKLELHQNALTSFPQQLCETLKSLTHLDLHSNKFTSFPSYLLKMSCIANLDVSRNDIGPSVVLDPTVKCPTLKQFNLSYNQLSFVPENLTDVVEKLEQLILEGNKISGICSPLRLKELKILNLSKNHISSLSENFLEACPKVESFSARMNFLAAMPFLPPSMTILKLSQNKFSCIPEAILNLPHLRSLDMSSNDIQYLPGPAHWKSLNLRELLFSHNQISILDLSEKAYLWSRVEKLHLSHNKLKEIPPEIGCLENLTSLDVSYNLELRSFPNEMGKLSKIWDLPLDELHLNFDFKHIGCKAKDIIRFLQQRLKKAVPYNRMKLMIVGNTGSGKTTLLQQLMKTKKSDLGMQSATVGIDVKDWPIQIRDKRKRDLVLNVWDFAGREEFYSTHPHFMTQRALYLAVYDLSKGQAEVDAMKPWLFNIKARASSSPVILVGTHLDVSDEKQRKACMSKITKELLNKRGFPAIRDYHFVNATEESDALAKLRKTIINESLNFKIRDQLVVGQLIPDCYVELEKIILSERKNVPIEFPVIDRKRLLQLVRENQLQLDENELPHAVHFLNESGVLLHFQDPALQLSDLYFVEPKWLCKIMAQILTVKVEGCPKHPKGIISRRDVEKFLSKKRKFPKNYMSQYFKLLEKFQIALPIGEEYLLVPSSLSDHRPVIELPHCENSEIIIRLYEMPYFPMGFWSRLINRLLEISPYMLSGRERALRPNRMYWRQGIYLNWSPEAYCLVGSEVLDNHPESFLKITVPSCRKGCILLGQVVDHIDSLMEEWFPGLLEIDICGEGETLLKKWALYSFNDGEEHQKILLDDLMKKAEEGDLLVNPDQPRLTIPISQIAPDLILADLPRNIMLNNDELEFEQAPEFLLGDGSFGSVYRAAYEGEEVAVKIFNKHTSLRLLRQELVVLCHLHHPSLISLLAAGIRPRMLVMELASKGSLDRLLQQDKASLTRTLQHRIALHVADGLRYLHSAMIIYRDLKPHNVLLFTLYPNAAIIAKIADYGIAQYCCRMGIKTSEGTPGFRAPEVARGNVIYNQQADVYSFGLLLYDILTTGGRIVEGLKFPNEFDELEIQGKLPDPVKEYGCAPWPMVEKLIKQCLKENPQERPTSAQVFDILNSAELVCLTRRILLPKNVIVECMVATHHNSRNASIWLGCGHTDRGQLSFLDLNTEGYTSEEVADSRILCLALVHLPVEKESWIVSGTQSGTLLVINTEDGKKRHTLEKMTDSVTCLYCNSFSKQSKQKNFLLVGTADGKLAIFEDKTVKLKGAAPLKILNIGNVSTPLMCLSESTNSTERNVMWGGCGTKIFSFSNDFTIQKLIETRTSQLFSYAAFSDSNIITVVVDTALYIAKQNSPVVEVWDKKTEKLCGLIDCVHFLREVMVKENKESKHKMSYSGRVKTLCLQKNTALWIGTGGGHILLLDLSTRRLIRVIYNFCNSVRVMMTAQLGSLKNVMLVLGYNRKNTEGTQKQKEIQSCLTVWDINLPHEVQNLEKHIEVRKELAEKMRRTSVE
- Run description: Inhibitory activity against LRRK2: competition binding to ligand-affinity beads, DNA-tagged kinase quantitated by qPCR
- Applied conditions: 10 nM compound; % of ctrl; read-out: LRRK2(WT) Remaining kinase activity(%) at 10 nM

| Molecule | remaining binding at 0.01 µM |
| --- | --- |
| COc1cc(C(=O)N2CCC(N(C)C)CC2)ccc1Nc1ncc(Cl)c(-c2cnn(C(C)C)c2)n1 | < 30% |
| COc1cc(C(=O)NC2CCN(C)CC2)ccc1Nc1ncc(Cl)c(-c2cnn(C(C)(C)C)c2)n1 | ≥ 50% |
| COc1cc(C(=O)N2CCC(C(C)(C)O)CC2)ccc1Nc1ncc(Cl)c(-c2cnn(C(C)C)c2)n1 | < 50% |
| COc1cc(C(=O)N2CCS(=O)(=O)CC2)ccc1Nc1ncc(Cl)c(-c2cnn(C(C)C)c2)n1 | < 50% |
| COc1cc(C(=O)NC2CCN(C(C)C)CC2)ccc1Nc1ncc(Cl)c(-c2cnn(C(C)C)c2)n1 | < 50% |
| COc1cc(C(=O)N2CCN(C(C)=O)CC2)ccc1Nc1ncc(Cl)c(-c2cnn(C(C)C)c2)n1 | < 50% |
| COc1cc(C(=O)NCc2ccc(C#N)cc2)ccc1Nc1ncc(Cl)c(-c2cnn(C(C)C)c2)n1 | ≥ 50% |
| COCCNC(=O)c1ccc(Nc2ncc(Cl)c(-c3cnn(C(C)C)c3)n2)c(OC)c1 | ≥ 50% |
| COc1cc(C(=O)Nc2cc(C)c(OC)c(C)c2)ccc1Nc1ncc(Cl)c(-c2cnn(C(C)C)c2)n1 | ≥ 50% |
| COc1cc(C(=O)N2CCN3CCCC3C2)ccc1Nc1ncc(Cl)c(-c2cnn(C(C)C)c2)n1 (stereo not drawn) | < 50% |
| COc1cc(C(=O)NCc2ccc(C)cc2)ccc1Nc1ncc(Cl)c(-c2cnn(C(C)C)c2)n1 | ≥ 50% |
| COc1cc(C(=O)NCc2ccc(S(N)(=O)=O)cc2)ccc1Nc1ncc(Cl)c(-c2cnn(C(C)C)c2)n1 | ≥ 50% |
| COc1cc(C(=O)NCc2cccc(N)c2)ccc1Nc1ncc(Cl)c(-c2cnn(C(C)C)c2)n1 | ≥ 50% |
| COc1cc(C(=O)NCc2ccc(Cl)nc2)ccc1Nc1ncc(Cl)c(-c2cnn(C(C)C)c2)n1 | ≥ 50% |
| COc1cc(C(=O)N2CCN(C)CC2)ccc1Nc1ncc(Cl)c(-c2cnn(C)c2)n1 | < 50% |

Values from patent US20240254103A9
